Origin of values: patent US20240218022A1

biological target: mouse VISTA (mVISTA) (Mus musculus); construct: expressed in transfected cells; host or cells: Human embryonic kidney 293T cells; test: Cell-Based Binding High-Content Assay For mVISTA (HC CBA mVISTA); conditions: the 19th table, scaffold drawing 22; read-out: HC CBA mVISTA IC50
Positions of bridges follow the written chain, without caps; N, C: chain ends. Non-standard residues stand in square brackets, D forms with d. Residues, ends and D or L forms follow the SMILES beside them. Phe(3-Me) = Cc1cccc(C[C@H](N)C(=O)O)c1; Ahp(2) = CCCCC[C@H](N)C(=O)O; NHexGly = CCCCCCNCC(=O)O; Nle = CCCC[C@H](N)C(=O)O
metricName: IC50 (nM)
# value in nM; strip the unit string

### Prompt Field request: IC50 | item: CCCCCCN1CC(=O)N[C@@H](Cc2ccc(O)cc2)C(=O)N[C@@H](CCCC)C(=O)N[C@@H](CC(N)=O)C(=O)N[C@@H](CCCNC(=N)N)C(=O)N[C@@H](CC(C)C)C(=O)N[C@@H](CCCCC)C(=O)N2CCC[C@H]2C(=O)N[C@@H](C(C)C)C(=O)N[C@@H](CC(=O)O)C(=O)N[C@H](C(=O)NCC(=O)O)CSCC(=O)N[C@@H](Cc2cccc(C)c2)C(=O)N[C@@H](Cc2c[nH]c3ccccc23)C(=O)N[C@@H](CC(=O)O)C1=O [compound 1420] ({CH2CO}-[Phe(3-Me)]WD[NHexGly]Y[Nle]NRL[Ahp(2)]PVDCG-OH; thioether N-14)
### Response 2

### Prompt Here is the next compound: CCCCCCN1CC(=O)N[C@@H](Cc2ccc(O)cc2)C(=O)N[C@@H](CCCC)C(=O)NCC(=O)N[C@@H](CCCNC(=N)N)C(=O)N[C@@H](CC(C)C)C(=O)N[C@@H](CCCCC)C(=O)N2CCC[C@H]2C(=O)N[C@@H](C(C)C)C(=O)N[C@@H](CC(=O)O)C(=O)N[C@H](C(=O)N[C@@H](CO)C(=O)O)CSCC(=O)N[C@@H](Cc2cccc(C)c2)C(=O)N[C@@H](Cc2c[nH]c3ccccc23)C(=O)N[C@@H](CC(=O)O)C1=O [compound 1425] ({CH2CO}-[Phe(3-Me)]WD[NHexGly]Y[Nle]GRL[Ahp(2)]PVDCS-OH; thioether N-14)
### Response 13.4

###

biological target: mouse VISTA (mVISTA) (Mus musculus, UniProt Q9D659); construct: expressed in transfected cells; host or cells: Human embryonic kidney 293T cells; experiment: Cell-Based Binding High-Content Assay For mVISTA (HC CBA mVISTA); conditions: 293T cells expressing mouse VISTA; competition with biotinylated peptide (2 nM); read-out: HC CBA mVISTA IC50
Positions of bridges follow the written chain, without caps; N, C: chain ends. Non-standard residues stand in square brackets, D forms with d. Residues, ends and D or L forms follow the SMILES beside them. ξ: configuration not given here. Ile(3ξ) = CCC(C)[C@H](N)C(=O)O; Ahp(2) = CCCCC[C@H](N)C(=O)O; NHexGly = CCCCCCNCC(=O)O
metricName: pIC50
The meaning of pIC50 here: minus log10 of the concentration in molar units.

compound: CCCCCCN1CC(=O)N[C@@H](Cc2ccc(O)cc2)C(=O)N[C@@H](CCCCC)C(=O)N[C@@H](CC(N)=O)C(=O)N[C@@H](C)C(=O)N[C@@H](CC(C)C)C(=O)N[C@@H](CCCCC)C(=O)N2CCC[C@H]2C(=O)N[C@@H](C(C)C)C(=O)N[C@@H](CO)C(=O)N[C@H](C(=O)NCC(N)=O)CSCC(=O)N[C@@H](Cc2ccccc2)C(=O)N[C@@H](Cc2ccc(O)cc2)C(=O)N[C@@H](CC(=O)O)C1=O [Example 1032] ({CH2CO}-FYD[NHexGly]Y[Ahp(2)]NAL[Ahp(2)]PVSCG-NH2; thioether N-14)
metricName: pIC50
reportedResult: 7.95

In the following, a different compound is considered.
### Prompt What value of pIC50 on mouse VISTA (mVISTA) (Mus musculus, UniProt Q9D659) does CCCCCCN1CC(=O)N[C@@H](Cc2ccc(O)cc2)C(=O)N[C@@H](C(C)CC)C(=O)NCC(=O)N[C@@H](CCCNC(=N)N)C(=O)N[C@@H](CC(C)C)C(=O)N[C@@H](CCCCC)C(=O)N2CCC[C@H]2C(=O)N[C@@H](C(C)C)C(=O)N[C@@H](CO)C(=O)N[C@H](C(=O)NCC(N)=O)CSCC(=O)N[C@@H](Cc2ccccc2)C(=O)N[C@@H](Cc2ccc(O)cc2)C(=O)N[C@@H](CC(=O)O)C1=O (some centres unmarked) [Example 1055] ({CH2CO}-FYD[NHexGly]Y[Ile(3ξ)]GRL[Ahp(2)]PVSCG-NH2; thioether N-14) have?
### Response 7.43

###

Biological target: mouse VISTA (mVISTA) (Mus musculus, UniProt Q9D659)
Construct: expressed in transfected cells; host or cells: Human embryonic kidney 293T cells
Sequence (Q9D659 33-308): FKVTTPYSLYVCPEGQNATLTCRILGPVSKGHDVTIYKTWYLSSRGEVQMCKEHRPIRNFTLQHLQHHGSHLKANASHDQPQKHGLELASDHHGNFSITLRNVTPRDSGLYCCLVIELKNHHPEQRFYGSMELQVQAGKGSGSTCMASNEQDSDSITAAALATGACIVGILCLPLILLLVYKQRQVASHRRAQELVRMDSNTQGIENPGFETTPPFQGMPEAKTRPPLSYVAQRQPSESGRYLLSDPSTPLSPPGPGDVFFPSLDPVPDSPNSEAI
Test: Cell-Based Binding High-Content Assay For mVISTA (HC CBA mVISTA)
Conditions: the 19th table, scaffold drawing 22; read-out: HC CBA mVISTA IC50
Positions of bridges follow the written chain, without caps; N, C: chain ends. Non-standard residues stand in square brackets, D forms with d. Residues, ends and D or L forms follow the SMILES beside them. Phe(3-Me) = Cc1cccc(C[C@H](N)C(=O)O)c1; Ahp(2) = CCCCC[C@H](N)C(=O)O; NHexGly = CCCCCCNCC(=O)O; Nle = CCCC[C@H](N)C(=O)O
metricName: IC50 (nM)
# value in nM; strip the unit string

### Prompt Field request: IC50 | item: CCCCCCN1CC(=O)N[C@@H](Cc2ccc(O)cc2)C(=O)N[C@@H](CCCC)C(=O)NCC(=O)N[C@@H](CCCNC(=N)N)C(=O)N[C@@H](CC(C)C)C(=O)N[C@@H](CCCCC)C(=O)N2CCC[C@H]2C(=O)N[C@@H](C(C)C)C(=O)N[C@@H](CC(=O)O)C(=O)N[C@H](C(=O)N[C@@H](CO)C(=O)O)CSCC(=O)N[C@@H](Cc2cccc(C)c2)C(=O)N[C@@H](Cc2ccc(O)cc2)C(=O)N[C@@H](CC(=O)O)C1=O [compound 1435] ({CH2CO}-[Phe(3-Me)]YD[NHexGly]Y[Nle]GRL[Ahp(2)]PVDCS-OH; thioether N-14)
### Response 9.4

### Prompt Here is the next compound: CCCCCCN1CC(=O)N[C@@H](Cc2ccc(O)cc2)C(=O)N[C@@H](CCCC)C(=O)NCC(=O)N[C@@H](CCCNC(=N)N)C(=O)N[C@@H](CC(C)C)C(=O)N[C@@H](CCCCC)C(=O)N2CCC[C@H]2C(=O)N[C@@H](C(C)C)C(=O)N[C@@H](CC(=O)O)C(=O)N[C@H](C(=O)NCC(=O)O)CSCC(=O)N[C@@H](Cc2cccc(C)c2)C(=O)N[C@@H](Cc2c[nH]c3ccccc23)C(=O)N[C@@H](CC(=O)O)C1=O [compound 1421] ({CH2CO}-[Phe(3-Me)]WD[NHexGly]Y[Nle]GRL[Ahp(2)]PVDCG-OH; thioether N-14)
### Response 3.1

###

Catalogue of compounds with associated pIC50
Target: mouse VISTA (mVISTA) (Mus musculus, UniProt Q9D659)
Construct: expressed in transfected cells; host or cells: Human embryonic kidney 293T cells
Sequence (Q9D659 33-308): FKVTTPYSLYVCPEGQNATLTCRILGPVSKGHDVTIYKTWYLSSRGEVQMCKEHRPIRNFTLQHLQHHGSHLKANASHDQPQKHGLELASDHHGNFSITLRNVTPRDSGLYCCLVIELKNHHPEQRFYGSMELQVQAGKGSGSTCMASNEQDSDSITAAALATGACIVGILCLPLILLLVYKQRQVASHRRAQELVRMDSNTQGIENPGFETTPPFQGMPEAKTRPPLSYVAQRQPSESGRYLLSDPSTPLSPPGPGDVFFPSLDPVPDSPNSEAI
Experiment: Cell-Based Binding High-Content Assay For mVISTA (HC CBA mVISTA)
Settings: read-out: HC CBA mVISTA IC50
Starred links: 1 amine or outer side, 2 acyl side, 3 side chain; linkers in the order of their positions; H or OH if unused. Positions of bridges follow the written chain, without caps; N, C: chain ends. Non-standard residues stand in square brackets, D forms with d. Residues, ends and D or L forms follow the SMILES beside them. *: point of attachment. X1 = C=CCOc1ccccc1C[C@H](N[*:1])C(=O)[*:2]; Phe(4-Me) = Cc1ccc(C[C@H](N)C(=O)O)cc1; Ahp(2) = CCCCC[C@H](N)C(=O)O; NMeNle = CCCC[C@H](NC)C(=O)O; Tle = CC(C)(C)[C@H](N)C(=O)O; NHexGly = CCCCCCNCC(=O)O; Allyl = C=CC*
The meaning of pIC50 here: minus log10 of the concentration in molar units.

compound: CCCCCCN1CC(=O)N[C@@H](Cc2ccc(O)cc2)C(=O)N[C@@H](CC(C)C)C(=O)N[C@@H](CC(N)=O)C(=O)N[C@@H](CCCNC(=N)N)C(=O)N(C)[C@@H](CCCC)C(=O)N[C@@H](CCCCC)C(=O)N2CCC[C@H]2C(=O)N[C@@H](C(C)(C)C)C(=O)N[C@@H](CO)C(=O)N[C@H](C(=O)NCC(N)=O)CSCC(=O)N[C@@H](Cc2ccccc2)C(=O)N[C@@H](Cc2ccc(C)cc2)C(=O)N[C@@H](CC(=O)O)C1=O [compound 1349] ({CH2CO}-F[Phe(4-Me)]D[NHexGly]YLNR[NMeNle][Ahp(2)]P[Tle]SCG-NH2; thioether N-14)
pIC50: 7.36
--
compound: C=CCOc1ccccc1C[C@@H]1NC(=O)CSC[C@@H](C(=O)NCC(N)=O)NC(=O)[C@H](CO)NC(=O)[C@H](C(C)(C)C)NC(=O)[C@@H]2CCCN2C(=O)[C@H](CCCCC)NC(=O)[C@H](CCCC)N(C)C(=O)[C@H](CCCNC(=N)N)NC(=O)[C@H](CC(N)=O)NC(=O)[C@H](CC(C)C)NC(=O)[C@H](Cc2ccc(O)cc2)NC(=O)CN(CCCCCC)C(=O)[C@H](CC(=O)O)NC(=O)[C@H](Cc2ccc(O)cc2)NC1=O [compound 1206] ({CH2CO}-[X1]YD[NHexGly]YLNR[NMeNle][Ahp(2)]P[Tle]SCG-NH2; thioether N-14)
pIC50: 7.55
--
compound: CCCCCCN1CC(=O)N[C@@H](Cc2ccc(O)cc2)C(=O)N[C@@H](CC(C)C)C(=O)NCC(=O)N[C@@H](CCCNC(=N)N)C(=O)N[C@@H](Cc2ccc(O)cc2)C(=O)N[C@@H](CCCCC)C(=O)N2CCC[C@H]2C(=O)N[C@@H](C(C)C)C(=O)N[C@@H](CC(=O)O)C(=O)N[C@H](C(=O)NCC(=O)O)CSCC(=O)N[C@@H](Cc2ccccc2)C(=O)N[C@@H](Cc2c[nH]c3ccccc23)C(=O)N[C@@H](CC(=O)O)C1=O [Example 1417] ({CH2CO}-FWD[NHexGly]YLGRY[Ahp(2)]PVDCG-OH; thioether N-14)
pIC50: 7.60

In the following, a different compound is considered.
### Prompt What value of pIC50 on mouse VISTA (mVISTA) (Mus musculus, UniProt Q9D659) does C=CCOc1ccc(C[C@@H]2NC(=O)CSC[C@@H](C(=O)NCC(N)=O)NC(=O)[C@H](CO)NC(=O)[C@H](C(C)(C)C)NC(=O)[C@@H]3CCCN3C(=O)[C@H](CCCCC)NC(=O)[C@H](CCCC)N(C)C(=O)[C@H](CCCNC(=N)N)NC(=O)[C@H](CC(N)=O)NC(=O)[C@H](CC(C)C)NC(=O)[C@H](Cc3ccc(O)cc3)NC(=O)CN(CCCCCC)C(=O)[C@H](CC(=O)O)NC(=O)[C@H](Cc3ccc(O)cc3)NC2=O)cc1 [compound 1223] ({CH2CO}-Y(Allyl)YD[NHexGly]YLNR[NMeNle][Ahp(2)]P[Tle]SCG-NH2; thioether N-14) have?
### Response 7.74
